# Assayed System: Serotonin 2 receptors; 5-HT2a & 5-HT2c (Homo sapiens) (UniProt P28223+P28335)
# Sequence (P28223 whole entry, looked up): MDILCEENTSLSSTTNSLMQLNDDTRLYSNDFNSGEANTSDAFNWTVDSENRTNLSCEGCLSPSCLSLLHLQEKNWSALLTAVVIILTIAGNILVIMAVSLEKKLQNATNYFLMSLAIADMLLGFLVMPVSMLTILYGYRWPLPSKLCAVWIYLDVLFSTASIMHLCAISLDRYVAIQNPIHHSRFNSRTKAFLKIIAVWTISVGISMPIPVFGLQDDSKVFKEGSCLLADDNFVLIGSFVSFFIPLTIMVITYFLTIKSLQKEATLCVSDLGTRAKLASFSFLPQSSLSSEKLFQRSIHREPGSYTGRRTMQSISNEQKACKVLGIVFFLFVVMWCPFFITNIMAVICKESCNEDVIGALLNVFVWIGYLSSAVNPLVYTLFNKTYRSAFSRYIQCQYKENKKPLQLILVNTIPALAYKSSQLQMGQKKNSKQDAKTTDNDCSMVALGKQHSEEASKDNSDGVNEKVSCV
# Sequence (P28335 whole entry, looked up): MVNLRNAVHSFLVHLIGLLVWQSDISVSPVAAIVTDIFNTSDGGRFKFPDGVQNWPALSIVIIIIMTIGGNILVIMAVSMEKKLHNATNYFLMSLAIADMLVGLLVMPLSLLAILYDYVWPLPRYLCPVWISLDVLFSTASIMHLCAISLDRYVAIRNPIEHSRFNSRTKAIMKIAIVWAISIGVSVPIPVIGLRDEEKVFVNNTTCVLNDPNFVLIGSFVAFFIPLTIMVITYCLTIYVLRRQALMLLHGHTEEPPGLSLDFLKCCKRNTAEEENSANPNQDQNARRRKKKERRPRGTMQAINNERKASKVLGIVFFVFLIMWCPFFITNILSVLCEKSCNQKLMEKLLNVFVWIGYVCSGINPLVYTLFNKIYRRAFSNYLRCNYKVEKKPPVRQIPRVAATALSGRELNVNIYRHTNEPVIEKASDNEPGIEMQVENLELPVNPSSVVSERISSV
# Run Description: Selectivity ratio of binding affinity of 5-hydroxytryptamine 2A receptor to that of 5-hydroxytryptamine 2C receptor.
# Type: protein assay
Measured Attribute: Selectivity ratio

>>> print(df.to_string())
                                   molecule  measured_attribute  value_reported
0  CCOc1ccc(-c2cc(Cl)cc3c2N2CCNCCC2C3)cc1 (centres undefined)   Selectivity ratio            0.69
1                    c1ccc2c(c1)cc1n2CCNCC1   Selectivity ratio             3.8
2                  Clc1c2n(c3ccccc13)CCNCC2   Selectivity ratio             1.4
3                   Cc1c2n(c3ccccc13)CCNCC2   Selectivity ratio             1.8

Values were extracted from ChEMBL document CHEMBL1136110.
